Source of measurements: the supplement of paper PMC10266784

B1: library; numbered along this chain (parent)
chain: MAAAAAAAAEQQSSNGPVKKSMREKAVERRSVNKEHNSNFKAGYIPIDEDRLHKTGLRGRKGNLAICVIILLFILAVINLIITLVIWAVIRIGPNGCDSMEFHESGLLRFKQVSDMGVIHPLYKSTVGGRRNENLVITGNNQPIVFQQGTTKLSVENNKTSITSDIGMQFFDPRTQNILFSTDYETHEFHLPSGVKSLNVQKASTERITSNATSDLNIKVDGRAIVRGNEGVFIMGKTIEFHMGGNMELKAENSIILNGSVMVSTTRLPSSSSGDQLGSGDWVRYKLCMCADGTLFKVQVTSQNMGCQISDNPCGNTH

- Variants of: B1
- test.summary: SGCB cell-surface expression functional score (HA stain, bin4 vs bin1, normalised to synonymous) (log10 ratio); higher = more cell-surface SGCB (functional)
metric: SGCB cell-surface expression functional score (log10)

[[record]]
mutation_code = "E10A"
endpoint_result = 0.17

[[record]]
mutation_code = "M243G"
endpoint_result = 0.64

[[record]]
mutation_code = "Q176D"
endpoint_result = 0.07

[[record]]
mutation_code = "T126I"
endpoint_result = 0.24

[[record]]
mutation_code = "I218H"
endpoint_result = -2.33

[[record]]
mutation_code = "M243P"
endpoint_result = 0.21

[[record]]
mutation_code = "S204Y"
endpoint_result = -0.38

[[record]]
mutation_code = "Q176S"
endpoint_result = -0.24

[[record]]
mutation_code = "N253Y"
endpoint_result = 0.45

[[record]]
mutation_code = "N258K"
endpoint_result = 0.55

[[record]]
mutation_code = "G231M"
endpoint_result = -1.23

[[record]]
mutation_code = "K250S"
endpoint_result = 0.33

[[record]]
mutation_code = "L287I"
endpoint_result = 0.07

[[record]]
mutation_code = "I66F"
endpoint_result = -0.03

[[record]]
mutation_code = "K61T"
endpoint_result = 0.03

[[record]]
mutation_code = "L52M"
endpoint_result = 0.34

[[record]]
mutation_code = "Q276P"
endpoint_result = -0.4

[[record]]
mutation_code = "V18P"
endpoint_result = 0.29

[[record]]
mutation_code = "R131L"
endpoint_result = 0.13

[[record]]
mutation_code = "S21K"
endpoint_result = 0.75

[[record]]
mutation_code = "I234R"
endpoint_result = -1.51

[[record]]
mutation_code = "I256E"
endpoint_result = 0.36

[[record]]
mutation_code = "I82D"
endpoint_result = -0.85

[[record]]
mutation_code = "A42K"
endpoint_result = 0.18

[[record]]
mutation_code = "G56W"
endpoint_result = -0.16

[[record]]
mutation_code = "E156H"
endpoint_result = -0.39

[[record]]
mutation_code = "I309Q"
endpoint_result = -0.01

[[record]]
mutation_code = "T150K"
endpoint_result = -0.14

[[record]]
mutation_code = "V113Y"
endpoint_result = -0.42

[[record]]
mutation_code = "A291Y"
endpoint_result = 0.25

[[record]]
mutation_code = "H187I"
endpoint_result = -0.51

[[record]]
mutation_code = "Q201W"
endpoint_result = -0.32

[[record]]
mutation_code = "T175S"
endpoint_result = -0.04

[[record]]
mutation_code = "T160W"
endpoint_result = -0.95

[[record]]
mutation_code = "R284A"
endpoint_result = 0.33

[[record]]
mutation_code = "V89T"
endpoint_result = -0.3

[[record]]
mutation_code = "N312E"
endpoint_result = 0.35

[[record]]
mutation_code = "Q201R"
endpoint_result = 0.39

[[record]]
mutation_code = "S197R"
endpoint_result = -0.6

[[record]]
mutation_code = "D311I"
endpoint_result = 0.18

[[record]]
mutation_code = "T209D"
endpoint_result = -1.17

[[record]]
mutation_code = "L80A"
endpoint_result = 0.19

[[record]]
mutation_code = "L257V"
endpoint_result = 0.45

[[record]]
mutation_code = "D50T"
endpoint_result = 0.44

[[record]]
mutation_code = "E230A"
endpoint_result = 0.38

[[record]]
mutation_code = "S279P"
endpoint_result = 0.24

[[record]]
mutation_code = "G149D"
endpoint_result = -0.25

[[record]]
mutation_code = "V300L"
endpoint_result = -1.14

[[record]]
mutation_code = "I225C"
endpoint_result = 0.31

[[record]]
mutation_code = "V145H"
endpoint_result = -0.24

[[record]]
mutation_code = "H242D"
endpoint_result = 0.83

[[record]]
mutation_code = "K196H"
endpoint_result = 1.37

[[record]]
mutation_code = "N229Y"
endpoint_result = -0.25

[[record]]
mutation_code = "P46G"
endpoint_result = 0.65

[[record]]
mutation_code = "S13R"
endpoint_result = -0.07

[[record]]
mutation_code = "K159T"
endpoint_result = -0.28

[[record]]
mutation_code = "A224G"
endpoint_result = -0.16

[[record]]
mutation_code = "G128Y"
endpoint_result = 0.6

[[record]]
mutation_code = "K25I"
endpoint_result = 0.13

[[record]]
mutation_code = "L216H"
endpoint_result = -2.1

[[record]]
mutation_code = "M168C"
endpoint_result = -0.84

[[record]]
mutation_code = "M1C"
endpoint_result = 0.25

[[record]]
mutation_code = "G43C"
endpoint_result = -0.02

[[record]]
mutation_code = "S214T"
endpoint_result = -0.12

[[record]]
mutation_code = "T301S"
endpoint_result = -0.16

[[record]]
mutation_code = "E248W"
endpoint_result = 0.116

[[record]]
mutation_code = "T266E"
endpoint_result = 1.22

[[record]]
mutation_code = "P121V"
endpoint_result = 0.5

[[record]]
mutation_code = "R207Y"
endpoint_result = -0.73

[[record]]
mutation_code = "M243N"
endpoint_result = 1.08

[[record]]
mutation_code = "V155C"
endpoint_result = -0.76

[[record]]
mutation_code = "E10I"
endpoint_result = 0.41

[[record]]
mutation_code = "A76T"
endpoint_result = -0.35

[[record]]
mutation_code = "S270Y"
endpoint_result = 0.41

[[record]]
mutation_code = "L72N"
endpoint_result = -0.44

[[record]]
mutation_code = "I119N"
endpoint_result = -1.15

[[record]]
mutation_code = "T182P"
endpoint_result = -1.25

[[record]]
mutation_code = "R223V"
endpoint_result = -0.13

[[record]]
mutation_code = "Q112P"
endpoint_result = -1.14

[[record]]
mutation_code = "N95Q"
endpoint_result = -0.12

[[record]]
mutation_code = "T83G"
endpoint_result = 0.04

[[record]]
mutation_code = "G56F"
endpoint_result = 0.28

[[record]]
mutation_code = "E35F"
endpoint_result = -0.1

[[record]]
mutation_code = "I239L"
endpoint_result = 0.49

[[record]]
mutation_code = "E49S"
endpoint_result = 0.15

